The measurements presented in this section are drawn from patent USRE46511E1.

tested on: HCC827 (EGFR DelE746_A750); assay: Inhibition test for growth of cancer cell expressing EGFR (SRB), HCC827; format: cell-based; details: Homo sapiens, HCC827, 72 h, HCC827 cells, 72 hours, SRB; read-out: GI50 HCC827 EGFR DelE746_A750;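 note: cells in 96-well plates exposed to tenfold serial dilutions from 100 µM, fixed with trichloroacetic acid, SRB-stained, absorbance read at 540 nm, DMSO under 1%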
quantity_measured: GI50

Some compounds with known GI50 results, for comparison:
compound: C=CC(=O)Nc1cccc(Oc2nc(Nc3ccc(N4CCN(C)CC4)cn3)nc3ccsc23)c1 [Example 167]
GI50: < 0.05 µM
//
compound: C=CC(=O)Nc1cccc(Oc2nc(Nc3ccc(C(=O)NCCN(C)C)cc3)nc3ccsc23)c1 [Example 79]
GI50: < 0.05 µM
//
compound: C=CC(=O)Nc1cccc(Oc2nc(Nc3ccc(CN4CCC(N(C)C)CC4)c(F)c3)nc3ccsc23)c1 [Example 196]
GI50: < 0.05 µM
//
compound: C=CC(=O)Nc1cccc(Oc2nc(Nc3ccc(OCCN4CCOCC4)c(F)c3)nc3ccsc23)c1 [Example 135]
GI50: 0.05 to 0.1 µM
//
compound: C=CC(=O)Nc1cccc(Oc2nc(Nc3ccc(CN(C)C)cc3C)nc3ccsc23)c1 [Example 205]
GI50: < 0.05 µM

Endpoint output: GI50 of C=CC(=O)Nc1cccc(Oc2nc(Nc3ccc(N4CCN(C)CC4)c(Cl)c3)nc3ccsc23)c1 [Example 7] . Value?
< 0.05 µM

Endpoint output: GI50 of C=CC(=O)Nc1cccc(Oc2nc(Nc3ccc(N4CCN(S(C)(=O)=O)CC4)cc3)nc3ccsc23)c1 [Example 23] . Value?
0.05 to 0.1 µM

Endpoint output: GI50 of C=CC(=O)Nc1cccc(Oc2nc(Nc3ccc(N4CCN(CC)CC4)cc3)nc3ccsc23)c1 [Example 10] . Value?
< 0.05 µM

Endpoint output: GI50 of C=CC(=O)Nc1cccc(Nc2nc(Nc3ccc(OCCCN(C)C)cc3)nc3ccsc23)c1 [Example 212] . Value?
0.05 to 0.1 µM

Endpoint output: GI50 of C=CC(=O)Nc1cccc(Oc2nc(Nc3ccc(CN(CC)CC)cc3)nc3ccsc23)c1 [Example 174] . Value?
< 0.05 µM

Endpoint output: GI50 of C=CC(=O)Nc1cccc(Oc2nc(Nc3ccc(C4CCN(C)CC4)c(F)c3)nc3ccoc23)c1 [Example 235] . Value?
< 0.05 µM

Endpoint output: GI50 of C=CC(=O)Nc1cccc(Oc2nc(Nc3ccc(CN4CCN(C)CC4)cc3)nc3ccsc23)c1 [Example 182] . Value?
< 0.05 µM

Endpoint output: GI50 of C=CC(=O)Nc1cccc(Sc2nc(Nc3ccc(N4CCOCC4)c(F)c3)nc3ccsc23)c1 [Example 224] . Value?
< 0.05 µM

====

compounds and their reported GI50
system: NCI-H1975 (EGFR L858R/T790M); experiment: Inhibition test for growth of cancer cell expressing EGFR (MTS), NCI-H1975; type: cell-based; conditions: Homo sapiens; NCI-H1975 cells, 48 hours, MTS; read-out: GI50 NCI-H1975 EGFR L858R/T790M

Some compounds with known GI50 results, for comparison:
compound: C=CC(=O)Nc1cccc(Sc2nc(Nc3ccc(C4CCN(C)CC4)c(F)c3)nc3ccsc23)c1
observed_value: < 0.05 µM

compound: C=CC(=O)Nc1cccc(Oc2nc(Nc3ccc(N4CCSCC4)cc3)nc3ccsc23)c1
observed_value: < 0.05 µM

compound: C=CC(=O)Nc1cccc(Oc2nc(Nc3ccc(C(=O)NC4CCN(C)CC4)cc3)nc3ccsc23)c1
observed_value: < 0.05 µM

# query: GI50 | item C=CC(=O)Nc1cccc(Oc2nc(Nc3ccc(N4CCC(N5CCOCC5)CC4)c(F)c3)nc3ccsc23)c1 | system: NCI-H1975 (EGFR L858R/T790M)
< 0.05 µM

# query: GI50 | item C=CC(=O)Nc1cccc(Oc2nc(Nc3ccc(N4CCS(=O)(=O)CC4)cc3)nc3ccsc23)c1 | system: NCI-H1975 (EGFR L858R/T790M)
< 0.05 µM

# query: GI50 | item C=CC(=O)Nc1cccc(Oc2nc(Nc3ccc(N4CCN(CCF)CC4)cc3)nc3ccsc23)c1 | system: NCI-H1975 (EGFR L858R/T790M)
0.05 to 0.1 µM

# query: GI50 | item C=CC(=O)Nc1cccc(Oc2nc(Nc3ccc(C4CCN(C)CC4)c(F)c3)nc3ccoc23)c1 | system: NCI-H1975 (EGFR L858R/T790M)
< 0.05 µM

# query: GI50 | item C=CC(=O)Nc1cccc(Oc2nc(Nc3ccc(N4CCN(C(C)C)CC4)cc3)nc3ccsc23)c1 | system: NCI-H1975 (EGFR L858R/T790M)
< 0.05 µM

# query: GI50 | item C=CC(=O)Nc1cccc(Oc2nc(Nc3ccc(N4CCN(C)CC4)cc3)nc3ccoc23)c1 | system: NCI-H1975 (EGFR L858R/T790M)
< 0.05 µM

====

molecules and their reported GI50
test system: NCI-H1975 (EGFR L858R/T790M); assay: Inhibition test for growth of cancer cell expressing EGFR (MTS), NCI-H1975; assay type: cell-based; details: Homo sapiens; NCI-H1975 cells, 48 hours, MTS; read-out: GI50 NCI-H1975 EGFR L858R/T790M

molecule: C=CC(=O)Nc1cccc(Oc2nc(Nc3ccc(C4=CCN(C)CC4)cc3)nc3ccsc23)c1 [Example 51]
observed_value: < 0.05 µM

molecule: C=CC(=O)Nc1cccc(Oc2nc(Nc3ccc(CCO)cc3)nc3ccsc23)c1 [Example 190]
observed_value: < 0.05 µM

# query: GI50 | item C=CC(=O)Nc1cccc(Oc2nc(Nc3ccc(N4CCN(S(=O)(=O)CC)CC4)c(F)c3)nc3ccsc23)c1 [Example 121] | system: NCI-H1975 (EGFR L858R/T790M)
< 0.05 µM

# query: GI50 | item C=CC(=O)Nc1cccc(Nc2nc(Nc3ccc(C4CCN(C)CC4)c(F)c3)nc3ccsc23)c1 [Example 216] | system: NCI-H1975 (EGFR L858R/T790M)
< 0.05 µM

# query: GI50 | item C=CC(=O)Nc1cccc(Oc2nc(Nc3ccc(CN4CCN(C)CC4)nc3)nc3ccsc23)c1 [Example 169] | system: NCI-H1975 (EGFR L858R/T790M)
0.05 to 0.1 µM

# query: GI50 | item C=CC(=O)Nc1cccc(Oc2nc(Nc3ccc(C(=O)NCCN4CCCC4)cc3)nc3ccsc23)c1 [Example 80] | system: NCI-H1975 (EGFR L858R/T790M)
< 0.05 µM

# query: GI50 | item C=CC(=O)Nc1cccc(Oc2nc(Nc3ccc(N4CCC(N5CCN(CC)CC5)CC4)cc3)nc3ccsc23)c1 [Example 50] | system: NCI-H1975 (EGFR L858R/T790M)
0.1 to 1 µM

# query: GI50 | item C=CC(=O)Nc1cccc(Oc2nc(Nc3ccc(N4CCN(S(=O)(=O)N(C)C)CC4)cc3)nc3ccsc23)c1 [Example 25] | system: NCI-H1975 (EGFR L858R/T790M)
0.05 to 0.1 µM

# query: GI50 | item C=CC(=O)Nc1cccc(Oc2nc(Nc3ccc(N4CCC(N5CCCCC5)CC4)cc3)nc3ccsc23)c1 [Example 48] | system: NCI-H1975 (EGFR L858R/T790M)
< 0.05 µM

# query: GI50 | item C=CC(=O)Nc1cccc(Oc2nc(Nc3ccc(N4CCNCC4)c(Cl)c3)nc3ccsc23)c1 [Example 159] | system: NCI-H1975 (EGFR L858R/T790M)
< 0.05 µM

# query: GI50 | item C=CC(=O)Nc1cccc(Oc2nc(Nc3ccc(OCCN(C)C)cc3)nc3ccsc23)c1 [Example 62] | system: NCI-H1975 (EGFR L858R/T790M)
< 0.05 µM

# query: GI50 | item C=CC(=O)Nc1cccc(Oc2nc(Nc3ccc(C(=O)OCCCN(C)C)cc3)nc3ccsc23)c1 [Example 93] | system: NCI-H1975 (EGFR L858R/T790M)
0.05 to 0.1 µM

# query: GI50 | item C=CC(=O)Nc1cccc(Oc2nc(Nc3ccc(N4CC(C)N(C)C(C)C4)cc3)nc3ccsc23)c1 (stereo not shown) [Example 27] | system: NCI-H1975 (EGFR L858R/T790M)
< 0.05 µM

# query: GI50 | item C=CC(=O)Nc1cccc(Oc2nc(Nc3ccc(N4CCN(C)CC4)c(F)c3OC)nc3ccsc23)c1 [Example 6] | system: NCI-H1975 (EGFR L858R/T790M)
< 0.05 µM

# query: GI50 | item C=CC(=O)Nc1cccc(Oc2nc(Nc3ccc(NC(=O)N4CCN(C)CC4)c(F)c3)nc3ccsc23)c1 [Example 201] | system: NCI-H1975 (EGFR L858R/T790M)
0.05 to 0.1 µM

# query: GI50 | item C=CC(=O)Nc1cccc(Oc2nc(Nc3ccc(N4CCN(C(C)(C)C)CC4)cc3)nc3ccsc23)c1 [Example 12] | system: NCI-H1975 (EGFR L858R/T790M)
< 0.05 µM
